# Measured On: T1, Fc tagged mouse TNFR2 (Sino Biological) (mouse, UniProt P25119 23-258)
# T1 construct: Bought reagent; also called mTNFR2; mTNF2; not shown: Fc tag of the bought protein
# T1 sequence (looked up): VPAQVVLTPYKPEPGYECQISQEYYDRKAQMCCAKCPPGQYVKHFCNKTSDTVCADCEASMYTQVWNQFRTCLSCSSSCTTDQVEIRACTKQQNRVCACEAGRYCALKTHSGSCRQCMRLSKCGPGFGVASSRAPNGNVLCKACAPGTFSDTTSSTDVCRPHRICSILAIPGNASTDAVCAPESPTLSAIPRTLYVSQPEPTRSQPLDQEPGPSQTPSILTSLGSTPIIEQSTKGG
# Test: SPR (Biacore T200) single cycle kinetics, Fc-tagged receptor captured on Protein A chip, TNF protein as analyte at 1.67-15 nM
Parameter: binding result

{"columns": ["Binder", "Result"],
 "data": [
  ["mouse TNF (mTNF), soluble protein expressed from pANT65 (ligand, UniProt P06804 80-235, looked up, not shown: C-terminal FLAG tag and His6 tag from vector pANT65) LRSSSQNSSDKPVAHVVANHQVEEQLEWLSQRANALLANGMDLKDNQLVVPADGLYLVYSQVLFKGQGCPDYVLLTHTVSRFAISYQEKVNLLSAVKSPCPKDTPEGAELKPWYEPIYLGGVFQLEKGDQLSAEVNLPKYLDFAESGQVYFGVIAL", "binds"]
]}
